Data origin, for the record: ChEMBL document CHEMBL1155803

- Target or system: Muscarinic acetylcholine receptor M1 (Homo sapiens)
- Sequence (P11229 whole entry): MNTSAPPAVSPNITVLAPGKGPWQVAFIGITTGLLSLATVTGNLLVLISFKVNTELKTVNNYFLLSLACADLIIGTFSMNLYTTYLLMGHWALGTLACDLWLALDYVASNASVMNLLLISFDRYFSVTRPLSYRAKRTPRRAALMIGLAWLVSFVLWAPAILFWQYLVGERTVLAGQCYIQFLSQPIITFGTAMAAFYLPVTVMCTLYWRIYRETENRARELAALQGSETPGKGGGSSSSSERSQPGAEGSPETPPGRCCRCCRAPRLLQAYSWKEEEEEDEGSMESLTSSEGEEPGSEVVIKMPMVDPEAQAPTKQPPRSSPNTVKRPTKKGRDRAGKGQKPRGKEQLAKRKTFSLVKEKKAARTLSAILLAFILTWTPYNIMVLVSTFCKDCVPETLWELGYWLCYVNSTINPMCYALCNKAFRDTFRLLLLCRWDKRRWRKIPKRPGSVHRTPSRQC
Metric name: pKi
Convention used: pKi is expressed as -log10 of the molar concentration.

## Input Field: pKi (Muscarinic acetylcholine receptor M1 (Homo sapiens)). Entry: CN(CCCCCCCCN(C)CCCCCCN(CC(=O)N1c2ccccc2C(=O)Nc2cccnc21)CC(=O)N1c2ccccc2C(=O)Nc2cccnc21)CCCCCCNCC(=O)N1c2ccccc2C(=O)Nc2cccnc21
## Output 8.45

* * *

Give measured pA2 for each item. Keep answers brief.
- Method: Antagonist activity at peripheral muscarinic M3 receptor in guinea pig longitudinal ileum assessed as effect on arecaidin propargyl ester-induced contraction after 1 hr
- Format: functional, tissue-based, Cavia porcellus
# answer = number (no unit)

## Input Which pA2 is listed for CN(C)[C@H]1CCCC[C@@H]1N(C)CC(=O)N1c2ccccc2C(=O)Nc2cccnc21.O=C(O)C(=O)O.O=C(O)C(=O)O ?
## Output 7.58

## Input Can you handle CN1CCN(CC(=O)N2c3ccccc3C(=O)Nc3cccnc32)CC1 [PIRENZEPINE] next?
## Output 6.88

## Input CN(C)[C@H]1CCCC[C@H]1N(C)CC(=O)N1c2ccccc2C(=O)Nc2cccnc21.O=C(O)C(=O)O.O=C(O)C(=O)O ?
## Output 7.64

## Input Ok, now CN1CCN(CC(=O)N2c3ccccc3C(=O)Nc3cccnc32)[C@@H]2CCCC[C@H]21 (relative stereo)
## Output 6.47

## Input And for CN1CCN(CC(=O)N2c3ccccc3C(=O)Nc3cccnc32)[C@@H]2CCCC[C@@H]21 (relative stereo) ?
## Output 6.01

## Input Input CN(C)[C@@H]1CCCC[C@H]1N(C)CC(=O)N1c2ccccc2C(=O)Nc2cccnc21.O=C(O)C(=O)O.O=C(O)C(=O)O
## Output 7.76

## Input Again, but for CN(C)[C@@H]1CCCC[C@@H]1N(C)CC(=O)N1c2ccccc2C(=O)Nc2cccnc21.O=C(O)C(=O)O.O=C(O)C(=O)O
## Output 7.57

## Input Try CN(CCCCCCCCN(C)CCCCCCN(CC(=O)N1c2ccccc2C(=O)Nc2cccnc21)CC(=O)N1c2ccccc2C(=O)Nc2cccnc21)CCCCCCNCC(=O)N1c2ccccc2C(=O)Nc2cccnc21 next.
## Output 6.55
